The measurements presented in this section are drawn from patent US10287301B2.

Attribute: pIC50
measured-on: Human Factor D (Homo sapiens (Human), UniProt P00746)
Sequence (P00746 26-253): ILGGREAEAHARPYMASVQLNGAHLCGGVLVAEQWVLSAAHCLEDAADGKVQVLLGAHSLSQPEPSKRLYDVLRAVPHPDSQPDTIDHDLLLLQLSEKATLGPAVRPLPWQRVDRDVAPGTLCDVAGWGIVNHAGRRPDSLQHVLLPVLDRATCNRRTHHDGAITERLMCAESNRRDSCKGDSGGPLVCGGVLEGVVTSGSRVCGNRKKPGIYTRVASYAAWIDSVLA
experiment-notes: Human Factor D Assay
Type: biochemical
condition: Human Factor D 80 nM, substrate Z-L-Lys-SBzl; read-out: IC50
pIC50: −log10 of the molar value.

Study these solved cases before continuing.
>  <chemical-structure>
NC(=O)c1nn(CC(=O)N2C[C@H](F)C[C@H]2C(=O)N[C@H]2CCCC[C@@H]2OCc2ccccc2)c2ccc(-c3ccnnc3)cc12

>  <measured-on>
Human Factor D (Homo sapiens (Human), UniProt P00746)

>  <pIC50>
< 5.00

$$$$
>  <chemical-structure>
CNc1ncc(-c2ccc3c(c2)c(C(C)=O)cn3CC(=O)N2C[C@H](F)C[C@H]2C(=O)Nc2cccc(-c3ccccc3Cl)c2F)cn1

>  <measured-on>
Human Factor D (Homo sapiens (Human), UniProt P00746)

>  <pIC50>
> 6.00

$$$$

So, NC(=O)c1nn(CC(=O)N2C[C@H](F)C[C@H]2C(=O)Nc2ccc3ccccc3c2)c2ccc(-c3ccnnc3)cc12 ? Its pIC50 was < 5.00

So, CC(=O)c1cn(CC(=O)N2C[C@H](F)C[C@H]2C(=O)Nc2cccc(-c3ccccc3Cl)c2F)c2ccc(N3CCN(C(C)=O)CC3)cc12 ? Its pIC50 was > 6.00

So, CC(=O)c1cn(CC(=O)N2C[C@H](F)C[C@H]2C(=O)Nc2c[nH]nc2-c2ccc(Cl)cc2Cl)c2ccc(-c3ccnnc3)cc12 ? Its pIC50 was < 5.00

So, CC(=O)c1cn(CC(=O)N2[C@@H]3C[C@@H]3C[C@H]2C(=O)NCc2cccc(Cl)c2F)c2ccc(-c3cnc(C)nc3)cc12 ? Its pIC50 was > 6.00

---

measured-on: Human Factor D (Homo sapiens (Human), UniProt P00746)
experiment-notes: Human Factor D Assay
Assay type: biochemical
condition: Human Factor D 80 nM, substrate Z-L-Lys-SBzl; read-out: IC50
measured-parameter: IC50

>  <compound>
CC(=O)c1cn(CC(=O)N2C[C@H](F)C[C@H]2C(=O)Nc2noc(-c3ccccc3Cl)n2)c2ccc(-c3ccnnc3)cc12

>  <IC50>
< 1 µM

$$$$

So, NC(=O)c1nn(CC(=O)N2C[C@H](F)C[C@H]2C(=O)Nc2cccc(-c3ccccc3Cl)c2F)c2ccc(-c3cnc(N4CCCC4)nc3)cc12 ? Its IC50 was < 1 µM

So, CC(=O)c1cn(CC(=O)N2C[C@H](F)C[C@H]2C(=O)Nc2cccc3c2NC(=O)C(C)O3)c2ccc(-c3ccnnc3)cc12 (stereo partly drawn) ? Its IC50 was > 10 µM

So, CC(=O)Nc1ncc(-c2ccc3c(c2)c(C(C)=O)cn3CC(=O)N2C[C@H](F)C[C@H]2C(=O)Nc2cccc(-c3ccccc3Cl)c2F)cn1 ? Its IC50 was < 1 µM

So, CC(=O)c1cn(CC(=O)N2C[C@H](F)C[C@H]2C(=O)Nc2cccc(O)n2)c2ccc(-c3ccnnc3)cc12 ? Its IC50 was > 10 µM

---

measured-on: Human Factor D (Homo sapiens (Human))
experiment-notes: Human Factor D Assay
Type: biochemical
condition: Human Factor D, Table 3; read-out: IC50
measured-parameter: IC50

>  <compound>
CC(=O)c1nn(CC(=O)N2C[C@H](F)C[C@H]2C(=O)Nc2cccc(OC(F)(F)F)c2F)c2ccc(-c3cnc(N)nc3)cc12

>  <measured-on>
Human Factor D (Homo sapiens (Human))

>  <measured-parameter>
IC50

>  <result>
< 1000 nM

$$$$
>  <compound>
CC(=O)c1nn(CC(=O)N2C3CC[C@@H](C3)[C@H]2C(=O)Nc2nc(Br)ccc2C)c2ccc(-c3cnc(C)nc3)cc12

>  <measured-on>
Human Factor D (Homo sapiens (Human))

>  <measured-parameter>
IC50

>  <result>
< 1000 nM

$$$$
>  <compound>
CC(=O)c1nn(CC(=O)N2[C@@H](C)CC[C@H]2C(=O)Nc2nc(Br)ccc2C)c2ccc(-c3cnc(C)nc3)cc12

>  <measured-on>
Human Factor D (Homo sapiens (Human))

>  <measured-parameter>
IC50

>  <result>
< 1000 nM

$$$$

Please turn your attention to the following entry.
So, NC(=O)c1nn(CC(=O)N2C[C@H](F)C[C@H]2C(=O)Nc2cccc(Br)n2)cc1-c1cnn(-c2ncc(F)cn2)c1 ? Its IC50 was > 10000 nM
